system: HepG2; assay: Cytotoxicity against human HepG2 cells measured after 48 hrs by MTT assay; format: functional, cell-based; details: HepG2, 48 h
What IC50 was measured for each of the following?

- compound: "C/C=C(/C)C(=O)O[C@@H]1[C@H]2C(C)=C[C@H](O)[C@@H](O)[C@]2(C)[C@H]2[C@@]3(O)OC[C@@]24[C@@H]1OC(=O)C[C@H]4[C@@H](C)[C@H]3O"
  IC50: "10.5 µM"
- compound: "C=C1[C@H](O)[C@]2(O)OC[C@]34[C@H]2[C@@]2(C)[C@H](O)[C@@H](O)C=C(C)[C@@H]2C[C@H]3OC(=O)C[C@@H]14 [SHINJULACTONE A]"
  IC50: "4.67 µM"

Attention now shifts to the item below.
Returns the measured IC50 for the input compound. Input: C=C1[C@@H](O)[C@@]2(O)OC[C@@]34[C@H]1[C@@H](OC(=O)C(C)CC)C(=O)O[C@@H]3C[C@H]1C(C)=C[C@H](O)[C@@H](O)[C@]1(C)[C@@H]24 (stereo partly drawn) [ALTISSINOL B] 1.22 µM

====

What pIC50 was measured for each of the following?
tested on: HepG2; experiment: Cytotoxicity against human HepG2 cells measured after 48 hrs by MTT assay; assay type: functional, cell-based; conditions: HepG2, 48 h
Numbers only, as −log10 of the molar value.

The cases that follow already have their pIC50 on record.
- molecule: "C=C1[C@@H](O)[C@]2(O)OC[C@@]34[C@H]1[C@@H](OC(=O)[C@](C)(O)CC)C(=O)O[C@@H]3C[C@H]1C(C)=C[C@H](O)[C@@H](O)[C@]1(C)[C@@H]24"
  measuredOn: "HepG2"
  pIC50: 5.94
- molecule: "CC[C@](C)(O)C(=O)O[C@H]1C(=O)O[C@@H]2C[C@H]3C(C)=C[C@H](O)[C@@H](O)[C@]3(C)[C@H]3[C@]4(O)OC[C@]32[C@@H]1[C@@H](C)[C@H]4O"
  measuredOn: "HepG2"
  pIC50: 4.45
- molecule: "C=C1[C@@H](O)[C@@]2(O)OC[C@@]34[C@H]1[C@@H](OC(=O)C(O)(CC)COC(=O)/C(C)=C\\C)C(=O)O[C@@H]3C[C@H]1C(C)=CC(=O)[C@@H](O)[C@]1(C)[C@@H]24 (stereo not given in full)"
  measuredOn: "HepG2"
  pIC50: 6.55

Below is a list of molecules. For each, state its recorded pIC50.
1. C/C=C(/C)C(=O)O[C@@H]1[C@H]2C(C)=CC(=O)[C@@H](O)[C@]2(C)[C@H]2[C@@]3(O)OC[C@@]24[C@@H]1OC(=O)C[C@H]4[C@@H](C)[C@H]3O
2. CC1=CC(=O)[C@@H](O)[C@]2(C)[C@H]3[C@@]4(O)OC[C@@]35[C@@H](C[C@@H]12)OC(=O)C[C@H]5[C@@H](C)[C@H]4O

6.26
5.92
